Ref: ChEMBL document CHEMBL1140261

- System: MT4
- Protocol summary: Concentration required to protect MT-4 cells from HIV-1 induced cytopathogenicity by 50%; determined by MTT method
- Type: functional, cell-based
- Reported conditions: Homo sapiens
Quantity name: EC50 (µM)

Cc1ncc([N+](=O)[O-])n1CCSC(c1ccccc1)c1cccc(Cl)c1 (stereo unspecified) : 64
Cc1ncc([N+](=O)[O-])n1CCNC(c1ccccc1)c1cccc(F)c1 (stereo unspecified) : 1.8
Cc1ncc([N+](=O)[O-])n1CCSC(c1ccccc1)c1cccc(F)c1 (stereo unspecified) : 80
Cc1ccccc1C(OCCn1c([N+](=O)[O-])cnc1C)c1cccs1 (stereo unspecified) : 0.45
Cc1ccc(C(OCCn2c([N+](=O)[O-])cnc2C)c2cccs2)cc1 (stereo unspecified) : 0.3
Cc1ncc([N+](=O)[O-])n1CCOCc1ccccc1 : 4.2
Cc1ncc([N+](=O)[O-])n1CCS(=O)(=O)C(c1ccccc1)c1ccccc1 : 5.2
O=[N+]([O-])c1cn(CCOC(c2ccccc2)c2ccccc2)cn1 : 78
Cc1ncc([N+](=O)[O-])n1CCOC(c1ccccc1)c1cccnc1 (stereo unspecified) : 0.08

====

- Measured on: Human immunodeficiency virus type 1 reverse transcriptase (Human immunodeficiency virus 1) (UniProt Q72547)
Quantity name: ID50 (µM)

Cc1ccnc2c1NC(=O)c1cccnc1N2C1CC1 : 0.4
Cc1ncc([N+](=O)[O-])n1CCOC(c1ccccc1)c1cccs1 (centres undefined) : 0.37
Cc1ncc([N+](=O)[O-])n1CCNC(c1ccccc1)c1ccccc1 : 16.5
Cc1ncc([N+](=O)[O-])n1CCOC(c1cccc(Cl)c1)c1cccs1 (centres undefined) : 1.17

====

Below: a set of entries, each annotated with reported pEC50.
- System: MT4
- Protocol summary: Concentration required to protect MT-4 cells from HIV-1 induced cytopathogenicity by 50%; determined by MTT method
- Format: functional, cell-based
- Reported conditions: Homo sapiens
pEC50: −log10 of the molar value.
Quantity name: pEC50

Cc1cccc(C(SCCn2c([N+](=O)[O-])cnc2C)c2ccccc2)c1 (stereo unspecified) : 5.52
Cc1ncc([N+](=O)[O-])n1CCOC(c1ccccc1)c1ccco1 (stereo unspecified) : 7.00
Cc1ncc([N+](=O)[O-])n1CCOC(c1ccccc1)C1CCCCC1 (stereo unspecified) : 6.52
Cc1ncc([N+](=O)[O-])n1CCSC(c1ccccc1)c1ccccc1F (stereo unspecified) : 5.30
Cc1cccc(C(NCCn2c([N+](=O)[O-])cnc2C)c2ccccc2)c1 (stereo unspecified) : 4.19
Cc1ccc(C(NCCn2c([N+](=O)[O-])cnc2C)c2ccccc2)cc1 (stereo unspecified) : 4.36
Cc1ncc([N+](=O)[O-])n1CCOC(c1cccs1)c1ccccc1Cl (stereo unspecified) : 5.72
Cc1ncc([N+](=O)[O-])n1CCNC(c1ccccc1)c1ccccc1Cl (stereo unspecified) : 4.05
Cc1ncc([N+](=O)[O-])n1CCOC(c1cccs1)c1ccccc1F (stereo unspecified) : 6.92
Cc1ncc([N+](=O)[O-])n1CCSC(c1ccccc1)c1ccccc1Cl (stereo unspecified) : 4.92
Cc1ncc([N+](=O)[O-])n1CCSCc1ccccc1 : 4.22

====

- Measured on: Human immunodeficiency virus type 1 reverse transcriptase (Human immunodeficiency virus 1, UniProt Q72547)
- Protocol summary: Concentration required to inhibit HIV-1 reverse transcriptase activity of wild-type enzyme
- Format: functional
Quantity name: EC50

Cc1ncc([N+](=O)[O-])n1CCSC(c1ccccc1)c1ccccc1 : 2300 nM
